Documented zone of inhibition at 10 µg/disc across a set of molecules
tested on: Escherichia coli; test: Disc test, Bauer-Kirby technique with 10 Mcg. discs; format: cell-based; settings: Escherichia coli, ATCC10536, strain ATCC 10536; 10 Mcg. discs; read-out: Zone Size
measured.attribute: zone of inhibition at 10 µg/disc (mm)

molecule	unit.annotation	recorded.result
CN[C@@H]1[C@@H](O)[C@@H](O[C@H]2[C@H](N)[C@H](O)[C@H](N)[C@@H](O[C@H]3OC(CN)=CC[C@H]3N)[C@@H]2O)OC[C@]1(C)O [Mutamicin 4]	mm	27
CN[C@@H]1[C@@H](O)[C@@H](O[C@@H]2[C@@H](N)[C@H](O[C@H]3OC(CN)=CC[C@H]3N)[C@@H](N)C[C@H]2N)OC[C@]1(C)O [Mutamicin 5]	mm	24
CN[C@@H]1[C@@H](O)[C@@H](O[C@H]2[C@H](N)[C@@H](O)[C@H](N)[C@@H](O[C@H]3OC(CN)=CC[C@H]3N)[C@@H]2O)OC[C@]1(C)O [Mutamicin 1]	mm	31
CN[C@@H]1[C@@H](O)[C@@H](O[C@@H]2C[C@H](O[C@H]3OC(CN)=CC[C@H]3N)[C@@H](N)C[C@H]2N)OC[C@]1(C)O [Mutamicin 2]	mm	28
CN[C@@H]1[C@@H](O)[C@@H](O[C@@H]2[C@@H](O)[C@H](O[C@H]3OC(CN)=CC[C@H]3N)[C@@H](N)C[C@H]2N)OC[C@]1(C)O [Sisomicin, reference compound]	mm	28

###

assay: Acute Toxicity; conditions: mouse, in vivo, iv

compound	LD50
CN[C@@H]1[C@@H](O)[C@@H](O[C@H]2[C@H](N)[C@@H](O)[C@H](N)[C@@H](O[C@H]3OC(CN)=CC[C@H]3N)[C@@H]2O)OC[C@]1(C)O [Mutamicin 1]	110 mg/kg
CN[C@@H]1[C@@H](O)[C@@H](O[C@@H]2[C@@H](O)[C@H](O[C@H]3OC(CN)=CC[C@H]3N)[C@@H](N)C[C@H]2N)OC[C@]1(C)O [Sisomicin, reference compound]	34 mg/kg
